# study.target: T1, wildtype feline IL-31 protein (Feline_IL31_wildtype) (feline); also: test concentration or dose not given here
# T1 chain: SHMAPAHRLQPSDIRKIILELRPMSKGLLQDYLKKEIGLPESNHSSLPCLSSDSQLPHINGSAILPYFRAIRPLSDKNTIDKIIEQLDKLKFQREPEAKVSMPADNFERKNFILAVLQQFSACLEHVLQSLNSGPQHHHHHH
# experimental.details: cell-based or functional assay
observation.type: % Inhibition Relative to Parent (pSTAT, FCWF-4 cells) (%)
Give bare numbers, in %.

The cases that follow already have their % Inhibition Relative to Parent (pSTAT, FCWF-4 cells) on record.
>  <binder>
A64 (antibody, V domains shown) VH: QVLLVQSGAEVRTPGASVKIFCKASGYSFTSYTIHWLRQAPAQGLEWMGNINPTSGYTENNQRFKDRLTLTADTSTNTAYMELSSLRSADTAMYYCARWGFKYDGEWSFAVWGAGTTVTVSS VL: EIQMTQSPSSLSASPGDRVTITCRASQGISIWLSWYQQKPGNIPKVLINKASNLHIGVPSRFSGSGSGTDFTLTISSLEPEDAATYYCLQSQTYPLTFGGGTKLEIK

>  <measured.result>
6.9

$$$$
>  <binder>
A54 (antibody, V domains shown) VH: QVLLVQSGAEVRTPGASVKIFCKASGYSFTSYTIHWLRQAPAQGLEWMGNINPTSGYTENNQRFKDRLTLTADTSTNTAYMELSSLRSADTAMYYCARWGAKYDGEWSFDVWGAGTTVTVSS VL: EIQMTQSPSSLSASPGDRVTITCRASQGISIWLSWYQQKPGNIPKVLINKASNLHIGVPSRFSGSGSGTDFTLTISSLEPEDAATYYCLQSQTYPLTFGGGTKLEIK

>  <measured.result>
-1

$$$$

Then this binder:
Please list % Inhibition Relative to Parent (pSTAT, FCWF-4 cells) recorded for the binder A30 (antibody, V domains shown) VH: QVLLVQSGAEVRTPGASVKIFCKASGYSFASYTIHWLRQAPAQGLEWMGNINPTSGYTENNQRFKDRLTLTADTSTNTAYMELSSLRSADTAMYYCARWGFKYDGEWSFDVWGAGTTVTVSS VL: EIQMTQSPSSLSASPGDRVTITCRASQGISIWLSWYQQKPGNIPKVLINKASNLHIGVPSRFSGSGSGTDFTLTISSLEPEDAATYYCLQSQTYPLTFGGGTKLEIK
28.4
